TEST_DETAILS: NCI Yeast Anticancer Drug Screen. Data for the cln2 rad14 strain (AID 165);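 also: 0% = growth equal to vehicle treated cultures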
CONDITION_DESCRIPTION: S. cerevisiae cln2 rad14 strain, at 50.0 µM, active compounds read high
Compounds without any hit were thinned out: in the full panel of roughly 79,000, 15% have a hit.
Listed below: growth inhibition values for each entry.
The reply should contain only the number, in %.

{"columns": ["MOLECULE", "growth inhibition, %"],
 "data": [
  ["CCOC(=O)c1cc(CC)sc1N", -10.2],
  ["Cc1nnc(-n2nc(-c3ccc(Cl)cc3)cc2N)[nH]c1=O", 12.8],
  ["NC(=S)N/N=C/c1ccccc1S(=O)(=O)O", -16.2]
]}

Can you share its growth inhibition? I mean this molecule: O=C(O)COc1c(Cl)cc(Cl)cc1Cl
-15.4

Look up growth inhibition: O=S(=O)(O)C1CC2C(c3ccccc31)N1ON2O1 (configuration not stated)
3.75

Name the recorded growth inhibition for COc1cc(OC)c(OC)cc1/C=C/c1cc[n+](C)c2ccccc12 .
-0.8

// query growth inhibition value for entry Nc1cc(OCc2ccccc2)ncn1
-11.6
